target: IL-13 (Homo sapiens (Human), UniProt P35225 35-146, limits assumed); assay: Biacore
Sequence (P35225 35-146 limits assumed): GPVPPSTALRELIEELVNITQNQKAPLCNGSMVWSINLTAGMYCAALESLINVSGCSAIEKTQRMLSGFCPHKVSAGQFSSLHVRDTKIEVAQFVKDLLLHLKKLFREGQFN

BINDER	koff (s⁻¹)
M465 (antibody, V domains shown, anti-IL-13, human IgG1) VH: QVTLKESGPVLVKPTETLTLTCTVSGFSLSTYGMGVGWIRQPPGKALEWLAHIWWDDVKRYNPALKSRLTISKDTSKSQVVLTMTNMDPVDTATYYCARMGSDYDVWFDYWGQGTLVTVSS VL: EIVLTQSPATLSLSPGERATLSCRASKSISKYLAWYQQKPGQAPRLLIYSGSTLQSGIPARFSGSGSGTDFTLTISSLEPEDFAVYYCQQHDNSPYTFGQGTKLEIK	0.000336
M447 (antibody, V domains shown, anti-IL-13, human IgG1) VH: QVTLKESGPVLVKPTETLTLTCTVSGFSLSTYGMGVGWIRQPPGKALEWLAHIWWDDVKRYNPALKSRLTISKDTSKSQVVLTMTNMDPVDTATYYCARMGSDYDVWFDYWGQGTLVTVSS VL: EIVLTQSPATLSLSPGERATLSCRASKSISKYLAWYQQKPGQAPRLLIYSGSTLQSGIPARFSGSGSGTDFTLTISSLEPEDFAVYYCQQQDIGPYTFGQGTKLEIK	5.4e-05
M459 (antibody, V domains shown, anti-IL-13, human IgG1) VH: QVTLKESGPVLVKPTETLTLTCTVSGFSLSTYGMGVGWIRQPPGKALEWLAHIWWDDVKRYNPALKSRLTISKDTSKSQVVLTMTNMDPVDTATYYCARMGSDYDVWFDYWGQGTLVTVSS VL: EIVLTQSPATLSLSPGERATLSCRASKSISKYLAWYQQKPGQAPRLLIYSGSTLQSGIPARFSGSGSGTDFTLTISSLEPEDFAVYYCQQPLEAPYTFGQGTKLEIK	0.000449
